Numbers sourced from paper PMC5424638.

# Tested on: CVB3 (Nancy strain)
# run.description: Anti-viral activity assay in CVB3-infected cardiomyocytes
# Assay type: cell-based, coxsackievirus B3
# condition.parameters: cardiomyocytes
endpoint: TI (TC50/IC50)
The reply should be a number, written without any unit.

{"compound": "O=CC=Cc1ccccc1 [Cinnamaldehyde, 3-phenyl-2-propenal, reference compound]", "system.name": "CVB3 (Nancy strain)", "TI (TC50/IC50)": 0.04}

Data request: Which TI (TC50/IC50) value is on record for Cc1ccc(/C=C(\Br)C=O)cc1 [Compound 4, (Z)-2-bromo-3-p-tolylacrylaldehyde] ?
Data returned: 3.39

Data request: Try this compound next: `O=C/C(Br)=C/c1ccc(Cl)cc1`
Data returned: 40.42

Data request: Would you mind doing O=C/C=C/c1ccc(Cl)cc1 [Compound 2, (E)-3-(4-chlorophenyl) acrylaldehyde] as well?
Data returned: 3.31

---

# run.description: Cytotoxicity assay
# Type: cell-based, rat
# condition.parameters: Sprague-Dawley, rat, primary neonatal rat cardiomyocytes
# CC50 at 72 h per entry
Enter your answer as a number in µM; do not include the unit.

Consider the following illustrative entries.
{"compound": "Cc1ccc(/C=C(\\Br)C=O)cc1 [Compound 4, (Z)-2-bromo-3-p-tolylacrylaldehyde]", "CC50 at 72 h / µM": 38.6}
{"compound": "COc1ccc(/C=C/C=O)cc1 [Compound 3, (E)-3-(4-methoxyphenyl)acrylaldehyde]", "CC50 at 72 h / µM": 7.88}
{"compound": "O=C/C=C/c1ccc(Cl)cc1 [Compound 2, (E)-3-(4-chlorophenyl) acrylaldehyde]", "CC50 at 72 h / µM": 6970}

Data request: Would you mind telling me what CC50 at 72 h value was observed for O=C/C(Br)=C/c1ccc(Cl)cc1 [Compound 5] ?
Data returned: 85.7

Data request: Item: Cc1ccc(/C=C/C=O)cc1 [Compound 1, (E)-3-p-tolylacrylaldehyde]
Data returned: 3.96

Data request: Entry O=CC=Cc1ccccc1 [Cinnamaldehyde, 3-phenyl-2-propenal, reference compound] please
Data returned: 0.98
